Measured inhibition in vivo at 100 mg/kg, listed per entry for reference.
Tested on: Rattus norvegicus
test description: Antiinflammatory activity in Wistar rat assessed as inhibition of carrageenan-induced hind paw edema volume at 100 mg/kg, po administered 60 mins before carrageenan challenge after 24 hrs relative to control
Assay type: functional

Observe how each entry below is paired with its result.
> print(dat)
                                   compound                     readout.kind  recorded.value
1  COc1cc2c(cc1OC)C(CC(=O)O)CC2 (stereo not given)  inhibition in vivo at 100 mg/kg           26.7%
2  COc1cc2c(cc1OC)C(CC(=O)N1CCNCC1)CC2 (stereo not given)  inhibition in vivo at 100 mg/kg             65%
3  COc1cc2c(cc1OC)C(CC(=O)NC(C)C)CC2 (stereo not given)  inhibition in vivo at 100 mg/kg             30%

With those in mind, consider the next compound.
Fill in the blank: the reported inhibition in vivo at 100 mg/kg of COc1cc2c(cc1OC)C(CC(=O)N(C)C)CC2 (stereo not given) is ____.
23.3%
